Source of measurements: the supplement of paper PMC4862054

Listed next: entries and their corresponding normalised response.
System: BT-474
Experiment: normalised response (% of control), CellTiter-Glo; higher = more viable cells (100 = DMSO, 0 = benzethonium chloride kill control)
Conditions: incubation time: 72 h
measurement-label: normalised response

> print(dat)
                                   molecule  reported.result
1  C=CCN(/C=C1/C(=O)O[C@H](COC)[C@@]2(C)C1=C(O)C(=O)C1=C2[C@H](OC(C)=O)C[C@]2(C)C(=O)CC[C@@H]12)CC=C [Sonolisib] (1 nM)             107%
2  COc1cc(Nc2c(C#N)cnc3cc(OCCCN4CCN(C)CC4)c(OC)cc23)c(Cl)cc1Cl [Bosutinib] (1 nM)            98.8%
3  O=[N+]([O-])c1ccc2c(c1)S(=O)(=O)C=C2 [Stattic] (5 nM)            98.6%
4  Nc1ccn([C@@H]2O[C@H](CO)[C@@H](O)C2(F)F)c(=O)n1 [Gemcitabine] (1 nM)             100%
5  Cc1nc(C(=O)NCC(=O)O)c(O)c2ccc(Oc3ccccc3)cc12 [FG-4592] (1 nM)            94.7%
6  CC(=O)[C@]1(O)Cc2c(O)c3c(c(O)c2[C@@H](O[C@H]2C[C@H](N)[C@H](O)[C@H](C)O2)C1)C(=O)c1ccccc1C3=O [Idarubicin] (0.1 nM)             106%
7  O=C(CCCCCCC(=O)Nc1ccccc1)NO [Vorinostat] (1000 nM)            89.4%

====

Test system: CAL-51
Assay: normalised response (% of control), CellTiter-Glo; higher = more viable cells (100 = DMSO, 0 = benzethonium chloride kill control)
Conditions: incubation time: 72 h
Assign met to entries whose normalised response meets or exceeds 90%; assign not met to the rest.

compound	classification
Cc1nc(C(=O)NCC(=O)O)c(O)c2ccc(Oc3ccccc3)cc12 [FG-4592] (100 nM)	met
COc1cc(Nc2c(C#N)cnc3cc(OCCCN4CCN(C)CC4)c(OC)cc23)c(Cl)cc1Cl [Bosutinib] (100 nM)	met
CC1(C)CCC(c2ccc(Cl)cc2)=C(CN2CCN(c3ccc(C(=O)NS(=O)(=O)c4ccc(N[C@H](CCN5CCOCC5)CSc5ccccc5)c(S(=O)(=O)C(F)(F)F)c4)cc3)CC2)C1 [Navitoclax] (100 nM)	met
CCN(CC)CCCC(C)Nc1ccnc2cc(Cl)ccc12 (configuration not stated) [Chloroquine] (1000 nM)	not met
CN[C@@H](C)C(=O)N[C@H]1CN(C(=O)CC(C)C)CC[C@H]2CC[C@@H](C(=O)NC(c3ccccc3)c3ccccc3)N2C1=O [AT-406] (100 nM)	met
Cc1cc(Nc2nc(N[C@@H](C)c3ncc(F)cn3)ncc2Cl)[nH]n1 [AZD1480] (10 nM)	met
Cn1cc(C2=C(c3cn(C4CCN(Cc5ccccn5)CC4)c4ccccc34)C(=O)NC2=O)c2ccccc21 [Enzastaurin] (100 nM)	not met
O=[N+]([O-])c1ccc2c(c1)S(=O)(=O)C=C2 [Stattic] (500 nM)	met
CC(C)n1cnc2c(NCCc3ccc(O)cc3)nc(-c3csc4ccccc34)nc21 [StemRegenin 1] (100 nM)	not met

====

Listed next: entries and their corresponding normalised response.
System: HCC1599
Experiment: normalised response (% of control), CellTiter-Glo; higher = more viable cells (100 = DMSO, 0 = benzethonium chloride kill control)
Details: incubation time: 72 h
measurement-label: normalised response

> print(dat)
                                   molecule  reported.result
1  CO[C@@H]1[C@H](N(C)C(=O)c2ccccc2)C[C@H]2O[C@]1(C)n1c3ccccc3c3c4c(c5c6ccccc6n2c5c31)C(=O)NC4 [Midostaurin] (10 nM)             123%
2  O=C(CCCCCCC(=O)Nc1ccccc1)NO [Vorinostat] (1000 nM)            98.9%
3  CCN(CC)CCCC(C)Nc1ccnc2cc(Cl)ccc12 (centres undefined) [Chloroquine] (10 nM)            90.9%
4  Cc1nc(C(=O)NCC(=O)O)c(O)c2ccc(Oc3ccccc3)cc12 [FG-4592] (1000 nM)             117%

====

Listed next: entries and their corresponding normalised response.
System: BT-474
Assay: normalised response (% of control), CellTiter-Glo; higher = more viable cells (100 = DMSO, 0 = benzethonium chloride kill control)
Conditions: incubation time: 72 h
measurement-label: normalised response (%)

> print(dat)
                                   compound    measurement.label  reported.result
1  CC(C)(C)c1nc(-c2cccc(NS(=O)(=O)c3c(F)cccc3F)c2F)c(-c2ccnc(N)n2)s1 [Dabrafenib] (25 nM)  normalised response             99.2
2  O=C(CCCCCCC(=O)Nc1ccccc1)NO [Vorinostat] (100 nM)  normalised response             96.2
3  CC(C)(C)NC(=O)[C@H]1CC[C@H]2[C@@H]3CC[C@H]4NC(=O)C=C[C@]4(C)[C@H]3CC[C@]12C [Finasteride] (100 nM)  normalised response             99.2
4  CCNC(=O)c1noc(-c2cc(C(C)C)c(O)cc2O)c1-c1ccc(CN2CCOCC2)cc1 [NVP-AUY922] (10 nM)  normalised response              116
5  CCNC(=O)CCC/C=C\C[C@@H]1[C@@H](/C=C/[C@@H](O)CCc2ccccc2)[C@H](O)C[C@@H]1O [Bimatoprost] (55 nM)  normalised response             97.2

====

Tested on: MDA-MB-436
Assay: normalised viability (% of control), CellTiter-Blue; higher = more viable cells (100 = DMSO, 0 = benzethonium chloride kill control)
Conditions: incubation time: 72 h
measurement-label: normalised viability (%)

compound	reading-unit	reported-result
CC(C)C[C@H](NC(=O)[C@@H](COC(C)(C)C)NC(=O)[C@H](Cc1ccc(O)cc1)NC(=O)[C@H](CO)NC(=O)[C@H](Cc1c[nH]c2ccccc12)NC(=O)[C@H](Cc1cnc[nH]1)NC(=O)[C@@H]1CCC(=O)N1)C(=O)N[C@@H](CCCNC(=N)N)C(=O)N1CCC[C@H]1C(=O)NNC(N)=O [Goserelin] (1 nM)	%	102
COc1ccc(S(=O)(=O)Nc2cccnc2Nc2ccc(O)cc2)cc1 [ABT-751] (1 nM)	%	85.8
CC(C)(C)NC(=O)[C@H]1CC[C@H]2[C@@H]3CC[C@H]4NC(=O)C=C[C@]4(C)[C@H]3CC[C@]12C [Finasteride] (1 nM)	%	98.7

====

Test system: BT-474
Experiment: normalised viability (% of control), CellTiter-Blue; higher = more viable cells (about 100 = DMSO control)
Conditions: 10000 nM; incubation time: 72 h
Listed next: entries and their corresponding normalised viability.

compound	normalised viability
CC(O)(CS(=O)(=O)c1ccc(F)cc1)C(=O)Nc1ccc(C#N)c(C(F)(F)F)c1 (centres undefined) [Bicalutamide]	138%
C=CCn1c(=O)c2cnc(Nc3ccc(N4CCN(C)CC4)cc3)nc2n1-c1cccc(C(C)(C)O)n1	35.7%
CC1(C)CCC(c2ccc(Cl)cc2)=C(CN2CCN(c3ccc(C(=O)NS(=O)(=O)c4ccc(N[C@H](CCN5CCOCC5)CSc5ccccc5)c(S(=O)(=O)C(F)(F)F)c4)cc3)CC2)C1	63%
C=CCN(/C=C1/C(=O)O[C@H](COC)[C@@]2(C)C1=C(O)C(=O)C1=C2[C@H](OC(C)=O)C[C@]2(C)C(=O)CC[C@@H]12)CC=C	41.9%

====

Listed next: entries and their corresponding drug sensitivity score.
Tested on: MFM-223
Experiment: drug sensitivity score (DSS), CellTiter-Blue viability (DSS (AUC-based score)); higher = stronger viability inhibition; extreme values may be limits of the assay
Details: incubation time: 72 h
measurement-label: drug sensitivity score

> print(dat)
                                   compound       measurement.label  reported.result
1  CO[C@@]12[C@H](COC(N)=O)C3=C(C(=O)C(C)=C(N)C3=O)N1C[C@@H]1N[C@@H]12 [Mitomycin C]  drug sensitivity score             4.69
2  C/C(=C\c1csc(C)n1)[C@@H]1C[C@@H]2O[C@]2(C)CCC[C@H](C)[C@H](O)[C@@H](C)C(=O)C(C)(C)[C@@H](O)CC(=O)N1 [Ixabepilone]  drug sensitivity score             2.45
3  Cc1cc(Nc2nc(N[C@@H](C)c3ncc(F)cn3)ncc2Cl)[nH]n1 [AZD1480]  drug sensitivity score              7.5
4  Cc1cn(-c2cc(NC(=O)c3ccc(C)c(Nc4nccc(-c5cccnc5)n4)c3)cc(C(F)(F)F)c2)cn1 [Nilotinib]  drug sensitivity score                0
5  Cn1cc(C2=C(c3cn(C4CCN(Cc5ccccn5)CC4)c4ccccc34)C(=O)NC2=O)c2ccccc21 [Enzastaurin]  drug sensitivity score              6.5
6  CCNC(=O)CCC/C=C\C[C@@H]1[C@@H](/C=C/[C@@H](O)CCc2ccccc2)[C@H](O)C[C@@H]1O [Bimatoprost]  drug sensitivity score                0
7  CNC(=O)c1ccccc1Sc1ccc2c(/C=C/c3ccccn3)n[nH]c2c1 [Axitinib]  drug sensitivity score             11.4
